B1: BCL2L13 (parent)
chain: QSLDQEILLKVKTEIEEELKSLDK

variants of: B1; assay: protein stability index of a GFP-peptide fusion (GPS, HEK-293T) (PSI 1-6); higher = more stable; settings: c terminus: a fixed tail appended;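 further: lentivirally expressed fusions sorted by FACS into six bins by GFP to DsRed ratio, PSI derived from sequencing read proportions per bin multiplied by bin number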
I'd appreciate it if you could supply protein stability index values for the items below.
One number for each entry.

Field: example entries. Status: answers known.
L19I
4.65
L8P
5.17
E6S
4.79
K24V
4.71
L3K
4.88

Report protein stability index for each item below.
1. D4F
2. Q1L
3. K10D
4. K24I
5. L3D
6. Q5P
7. E6A
8. I15A

1. 2.34
2. 3.7
3. 5.67
4. 4.58
5. 5.72
6. 4.4
7. 3.94
8. 5.33
